This collection of values is drawn from paper PMC5038266.

method: clinical
measurement conditions: human, in vivo, po, 200 mg, Delamanid AUCτ, Study 1; DLM + PLC; delamanid 200 mg once daily, day 15; plasma; mean ± SD
property name: AUC (µg·h/mL)
Numbers only, in µg·h/mL.

IN: # query: AUC of entry C[C@]1(COc2ccc(N3CCC(Oc4ccc(OC(F)(F)F)cc4)CC3)cc2)Cn2cc([N+](=O)[O-])nc2O1
OUT: 5.95

* * *

method: Study 1: multiple-dose drug-drug interaction pharmacokinetics, delamanid with ethambutol plus Rifater
measurement conditions: human, plasma, po, Cmax of coadministered drug, with DLM, ethambutol 1100 mg + Rifater once daily, day 15, with delamanid 200 mg once daily, mean ± SD
Field: Cmax. Provide a value for each of the compounds that follow.
Numbers only, in ng/mL.

compound	property name	unit text	value measured
CC[C@@H](CO)NCCN[C@@H](CC)CO [Ethambutol]	Cmax	ng/mL	4450
NC(=O)c1cnccn1 [Pyrazinamide]	Cmax	ng/mL	51400

Note: attention shifts to another entry.
IN: # query: Cmax of entry NNC(=O)c1ccncc1 [Isoniazid]
OUT: 4620

* * *

method: clinical
measurement conditions: human, in vivo, po, Cmax of coadministered drug, without DLM
property name: Cmax

IN: # query: Cmax of entry NC(=O)c1cnccn1 [Pyrazinamide]
OUT: 49700 ng/mL

* * *

method: Study 3: multiple-dose drug-drug interaction pharmacokinetics, delamanid with efavirenz
measurement conditions: human, in vivo, po, 100 mg, Delamanid AUCτ, DLM + EFV (efavirenz 600 mg once daily for 10 days), delamanid 100 mg twice daily, day 17 evening dose, mean ± SD
property name: AUC

IN: # query: AUC of entry C[C@]1(COc2ccc(N3CCC(Oc4ccc(OC(F)(F)F)cc4)CC3)cc2)Cn2cc([N+](=O)[O-])nc2O1
OUT: 4240 ng·h/mL

* * *

Field: AUC. Provide a value for each of the molecules that follow.
method: Study 1: multiple-dose drug-drug interaction pharmacokinetics, delamanid with ethambutol plus Rifater
measurement conditions: human, plasma, po, AUCτ of coadministered drug, without DLM, ethambutol 1100 mg + Rifater once daily, day 15, without delamanid, mean ± SD
One number for each entry, in µg·h/mL.

I'm hoping you can list AUC for every molecule here, please.
1. CC[C@@H](CO)NCCN[C@@H](CC)CO
2. NC(=O)c1cnccn1 [Pyrazinamide]

OUT:
1. 18.2
2. 488

* * *

method: clinical
measurement conditions: human, in vivo, po, AUCτ of coadministered drug, without DLM, Study 1; ethambutol 1100 mg + Rifater once daily, day 15; without delamanid; mean ± SD
property name: AUC (ng·h/mL)
Answers are plain numbers, in ng·h/mL.

IN: # query: AUC of entry NNC(=O)c1ccncc1
OUT: 20000

* * *

method: clinical
measurement conditions: human, in vivo, po, 200 mg, Delamanid Tmax, Study 1; DLM + PLC; delamanid 200 mg once daily, day 15; plasma; median (min-max)
property name: Tmax (h)
Give bare numbers, in h.

IN: # query: Tmax of entry C[C@]1(COc2ccc(N3CCC(Oc4ccc(OC(F)(F)F)cc4)CC3)cc2)Cn2cc([N+](=O)[O-])nc2O1 [Delamanid]
OUT: 4

* * *

method: clinical
measurement conditions: human, in vivo, po, 200 mg, Delamanid Cmax
property name: Cmax (ng/mL)
Give bare numbers, in ng/mL.

IN: # query: Cmax of entry C[C@]1(COc2ccc(N3CCC(Oc4ccc(OC(F)(F)F)cc4)CC3)cc2)Cn2cc([N+](=O)[O-])nc2O1
OUT: 270

* * *

method: clinical
measurement conditions: human, in vivo, po, AUCτ of coadministered drug, with DLM
property name: AUC
# include the unit after the value

IN: # query: AUC of entry CO[C@H]1/C=C/O[C@@]2(C)Oc3c(C)c(O)c4c(O)c(c(/C=N/N5CCN(C)CC5)c(O)c4c3C2=O)NC(=O)/C(C)=C\C=C\[C@H](C)[C@H](O)[C@@H](C)[C@@H](O)[C@@H](C)[C@H](OC(C)=O)[C@@H]1C
OUT: 55900 ng·h/mL

* * *

method: clinical
measurement conditions: human, in vivo, po, 100 mg, Delamanid Cmax
property name: Cmax (ng/mL)
Give bare numbers, in ng/mL.

IN: # query: Cmax of entry C[C@]1(COc2ccc(N3CCC(Oc4ccc(OC(F)(F)F)cc4)CC3)cc2)Cn2cc([N+](=O)[O-])nc2O1 [Delamanid]
OUT: 518

* * *

method: Study 3: multiple-dose drug-drug interaction pharmacokinetics, delamanid with efavirenz
measurement conditions: human, plasma, po, 600 mg, Cmax of coadministered drug, without DLM, efavirenz 600 mg once daily in the evening for 10 days, without delamanid, mean ± SD
property name: Cmax (ng/mL)
Answers are plain numbers, in ng/mL.

IN: # query: Cmax of entry O=C1Nc2ccc(Cl)cc2[C@@](C#CC2CC2)(C(F)(F)F)O1
OUT: 5950

* * *

method: clinical
measurement conditions: human, in vivo, po, AUCτ of coadministered drug, without DLM
property name: AUC (ng·h/mL)
One number for each entry, in ng·h/mL.

IN: # query: AUC of entry CO[C@H]1/C=C/O[C@@]2(C)Oc3c(C)c(O)c4c(O)c(c(/C=N/N5CCN(C)CC5)c(O)c4c3C2=O)NC(=O)/C(C)=C\C=C\[C@H](C)[C@H](O)[C@@H](C)[C@@H](O)[C@@H](C)[C@H](OC(C)=O)[C@@H]1C [Rifampin]
OUT: 48200

* * *

method: clinical
measurement conditions: human, in vivo, po, Cmax of coadministered drug, with DLM
property name: Cmax (ng/mL)
Answers are plain numbers, in ng/mL.

mol smiles	unit text	Cmax
CC(C)c1nc(CN(C)C(=O)N[C@H](C(=O)N[C@@H](Cc2ccccc2)C[C@H](O)[C@H](Cc2ccccc2)NC(=O)OCc2cncs2)C(C)C)cs1	ng/mL	1270

Note: attention shifts to another entry.
IN: # query: Cmax of entry C[C@H](Cn1cnc2c(N)ncnc21)OCP(=O)(O)O
OUT: 294

* * *

method: clinical
measurement conditions: human, in vivo, po, 100 mg, Delamanid AUCτ
property name: AUC (ng·h/mL)
Give bare numbers, in ng·h/mL.

IN: # query: AUC of entry C[C@]1(COc2ccc(N3CCC(Oc4ccc(OC(F)(F)F)cc4)CC3)cc2)Cn2cc([N+](=O)[O-])nc2O1
OUT: 4510

* * *

method: Study 3: multiple-dose drug-drug interaction pharmacokinetics, delamanid with efavirenz
measurement conditions: human, in vivo, po, 100 mg, Delamanid AUCτ, DLM alone, delamanid 100 mg twice daily, day 7 evening dose, mean ± SD
property name: AUC (ng·h/mL)
One number for each entry, in ng·h/mL.

IN: # query: AUC of entry C[C@]1(COc2ccc(N3CCC(Oc4ccc(OC(F)(F)F)cc4)CC3)cc2)Cn2cc([N+](=O)[O-])nc2O1 [Delamanid]
OUT: 4380

* * *

method: clinical
measurement conditions: human, in vivo, po, 100 mg, Delamanid Cmax, Study 2; DLM alone; delamanid 100 mg twice daily, day 14; plasma; mean ± SD
property name: Cmax
# include the unit after the value

IN: # query: Cmax of entry C[C@]1(COc2ccc(N3CCC(Oc4ccc(OC(F)(F)F)cc4)CC3)cc2)Cn2cc([N+](=O)[O-])nc2O1
OUT: 0.617 µg/mL

* * *

method: Study 3: multiple-dose drug-drug interaction pharmacokinetics, delamanid with efavirenz
measurement conditions: human, plasma, po, 600 mg, Cmax of coadministered drug, with DLM, efavirenz 600 mg once daily in the evening for 10 days, with delamanid 100 mg twice daily, mean ± SD
property name: Cmax (ng/mL)
Numbers only, in ng/mL.

IN: # query: Cmax of entry O=C1Nc2ccc(Cl)cc2[C@@](C#CC2CC2)(C(F)(F)F)O1
OUT: 5810
